These data points were gathered from ChEMBL document CHEMBL1201862.

system: SNB-19; assay: NCI tumour cell line growth inhibition, 48 h
Active and inactive are the calls of the source. No stated cut-off is given here; in the data, active = GI50 up to about 1.1 µM and inactive = higher.
Measured property: GI50

> print(dat)
                                   molecule  measured.property               result
1  COc1ccc(C(=O)N(C(=O)N2CCN(c3ccccc3)CC2)S(=O)(=O)c2ccccc2)cc1               GI50   24.7 µM (inactive)
2  Cc1ccc(C(=O)N/N=C(\N=N\c2ccc([N+](=O)[O-])cc2)c2ccc(N(CCC#N)CCC#N)cc2C)cc1               GI50  > 100 µM (inactive)
3  N[C@H]1CCc2c1nc1c(c2-c2ccccc2)CC[C@@H]1N               GI50   82.8 µM (inactive)
4  Cc1cc(C)nc(NS(=O)(=O)c2ccc(NC(=O)c3ccc4nc5ccccc5c(Nc5ccc(S(=O)(=O)Nc6nc(C)cc(C)n6)cc5)c4c3)cc2)n1               GI50  > 100 µM (inactive)
5  COc1cccc2c(NNc3ccccc3)c3ccc([N+](=O)[O-])cc3nc12               GI50  > 100 µM (inactive)
6  Cc1ccc(OP2(=O)Oc3ccc4ccccc4c3CN2c2ccc(Cl)cc2)cc1C (centres undefined)               GI50  > 100 µM (inactive)
7  BrC1=CN2C[n+]3cc(Br)c4ccccc4c3N=C2c2ccccc21               GI50   6.67 µM (inactive)
8  Nc1ncnc2c1ncn2C1CCC(COS(N)(=O)=O)C1 (centres undefined)               GI50  > 100 µM (inactive)
9  CC(=O)OC12c3ccccc3-c3ccccc3C1C1C(=O)N(C)C(=O)C12Cl (centres undefined)               GI50   > 10 µM (inactive)

###

tested on: EKVX; assay: NCI tumour cell line growth inhibition, 48 h
Calls of active or inactive are those of the source. No stated cut-off is given here; in the data, active = GI50 up to about 1.1 µM and inactive = higher.
Outcomes: active, inactive

> print(dat)
                                    compound  label.class
 1  CC1C(=NO)C(C)C(c2ccccc2)N(N=O)C1c1ccccc1 (stereo unspecified)     inactive
 2  CCC(=O)c1cc(C(=O)C(=S)SC)cc(C(=O)C(=S)SC)c1     inactive
 3  N#CC(C#N)=C(N)/C(C#N)=C/c1cc(O)c(O)c(Br)c1     inactive
 4        O=[N+]([O-])c1cnccc1-n1nnc2ccccc21     inactive
 5  CC(C)NC(=O)OCc1c2c(n(C)c1COC(=O)NC(C)C)-c1cc(Cl)c(Cl)cc1CC2     inactive
 6  COc1cc(C=O)c(-c2cc3c(cc2C2(C)OCCS2)OCO3)c(OC)c1OC (stereo unspecified)     inactive
 7  O=C1NC(c2cccc(OCc3ccccc3)c2)Nc2ccccc21 (stereo unspecified)       active
 8  CCCCCCCCC/C=C1\CC(CO)(COC(=O)C2CCCCC2)OC1=O (stereo unspecified)     inactive
 9  Sc1nn2c(COc3cccc(OCc4nnc5sc(S)nn45)c3)nnc2s1     inactive
10  Cc1c(CCCl)c(N=[N+]=[N-])n2c(nc3ccccc32)c1C#N     inactive
11  CCN(CC)c1ccc(/N=N/c2ccc(-c3nc4cccnc4s3)cc2)cc1     inactive

###

test system: ACHN; test: NCI tumour cell line growth inhibition, 48 h
Active and inactive are the calls of the source. Cut-off read from the data, not from the text of the source: active = GI50 up to about 1.1 µM and inactive = higher.
Measured property: GI50

> print(dat)
                                    compound  measured.property                result
 1  CC1CN=C(N(C(=O)Nc2ccc(F)c(Cl)c2)c2ccccc2)S1 (stereo unspecified)               GI50    25.5 µM (inactive)
 2                  CC(=O)/C=C/c1cccc(N=S)c1               GI50  > 38.4 µM (inactive)
 3  c1ccc2c(c1)nnn2C1CCCCO1 (stereo unspecified)               GI50   > 100 µM (inactive)
 4  CO/N=C(\C)c1ccc(Nc2nc3ccccc3c3occc23)cc1               GI50      14 µM (inactive)
 5  CCOc1cc2c(cc1OC(C)=O)C(=O)CC[C@H]1C3CC[C@H](OC(C)=O)[C@@]3(C)CC[C@H]21 (stereo partly specified)               GI50   > 100 µM (inactive)
 6             CN(C)C(=S)Nc1nnc(Nc2ccccc2)s1               GI50   > 100 µM (inactive)
 7  COC1=CC(=O)c2c(cc(COP(N)(=O)N(CCBr)CCBr)n2C)C1=O (stereo unspecified)               GI50    < 0.01 µM (active)
 8  CC(=O)C1(O)CCC2(O)C3(O)CC=C4CC(O)CCC4(C)C3CC(OC(=O)c3ccc(O)cc3)C12C (stereo unspecified)               GI50   > 100 µM (inactive)
 9    CC(=O)CC(=O)CCC(=O)Nc1cccc(C(F)(F)F)c1               GI50   > 100 µM (inactive)
10  COC1=CC(=O)C2=C(C1=O)[C@H]1CC[C@]3(C)[C@@H](OC(C)=O)CC[C@H]3[C@@H]1CC2               GI50    35.1 µM (inactive)
11   CC(C)(S)C(N)C(=O)O (stereo unspecified)               GI50   > 100 µM (inactive)

###

# key: entry, value: GI50
tested on: SF-268; test: NCI tumour cell line growth inhibition, 48 h
The source made the active and inactive calls. Rule as the data show it: active = GI50 up to about 1.1 µM and inactive = higher.
Measured property: GI50

> print(dat)
                                   compound               result
1        CCOC(CN(C)C(=S)Nc1cccc2ccccc12)OCC   > 10 µM (inactive)
2              Cc1[nH]c(C)c(CN(C)C)c1CN(C)C  > 100 µM (inactive)
3          COc1ccc2c(c1)CCN=C2c1ccccc1CCCCl   22.2 µM (inactive)
4  COc1cc(/C=C/C(=O)OC2C(O)C3CC(OC(=O)c4cc(OC)c(OC)c(OC)c4)CC2N3C)cc(OC)c1OC (stereo unspecified)   > 50 µM (inactive)
5         Cc1ccc(NC(=O)CCc2n[nH]c(=S)o2)cc1  > 100 µM (inactive)
6  Cc1ccc([S+]([O-])c2cccs2)cc1 (stereo unspecified)  > 100 µM (inactive)

###

tested on: M14; experiment: NCI tumour cell line growth inhibition, 48 h
Active and inactive are the calls of the source. Rule as the data show it: active = GI50 up to about 1.1 µM and inactive = higher.
Outcomes: active, inactive

Molecule	Label class
c1ccc(SC23C4C5C6C4C2C6C53)nc1 (stereo not given)	inactive
c1ccc([I+]c2ccccc2)cc1	inactive
O=C1C2C(C(=O)N1O)N(Cc1ccccc1)C(=O)N2Cc1ccccc1 (stereo not given)	inactive
CC(=O)OCC1=C(C)C[C@H]([C@@H](COC(C)=O)C2CCC3C4C[C@H]5O[C@]56CC=CC(=O)[C@]6(C)C4CC[C@@]32C)OC1=O (stereo not given in full)	active
OCCNc1ncnc2[nH]cnc12	inactive
C=C1C(=O)OC2CC(C)C3CC(O)OC(OCC)C3(C)CC12 (stereo not given)	inactive
CC(C)C(=O)[C@@]1(C)SC[C@H]2CCN=C21	inactive
CCC(=O)c1c(NOC2OC(COC(C)=O)C(OC(C)=O)C(OC(C)=O)C2OC(C)=O)nc(OC)n(C)c1=O (stereo not given)	inactive
O=c1oc2ccccc2n1CCN1CCCCC1	inactive
CNc1ncccc1Nc1cc(=O)n2c3cccnc3n(C)c2c1	inactive
Fc1cc(-c2cc(-c3ccc4c(c3)OCO4)n[nH]2)c(Cl)cc1Cl	inactive
NC(=O)c1ccc2c(c1)S(=O)(=O)c1ccccc1C2=O	inactive
C=C(C)[C@@]1(OC(=O)c2cc([N+](=O)[O-])cc([N+](=O)[O-])c2)C[C@@H]2CCCC[C@@H]21	inactive
CC(C)(O)[C@@H]1CCC(C)([C@H]2[C@@H](O)CC3(C)C4CC(OC5OC(CO)C(O)C(O)C5O)C5C(C)(C)[C@@H](OC6OCC(O)C(O)C6O)CC[C@@]56C[C@@]46CC[C@]23C)O1 (stereo not given in full)	inactive
CSc1ccc(/C=C2\N=C(c3ccccc3)N(c3nc4cc(C)c(C)cc4s3)C2=O)cc1	inactive
CC(C)NC(=O)OCc1c2c(n(C)c1COC(=O)NC(C)C)-c1cc(Cl)c(Cl)cc1CC2	inactive
Cc1cc(/N=N/c2ccccc2C)ccc1N	inactive
C#CCC(N)(CO)C(=O)O (stereo not given)	inactive
CCOC(=O)NC(=O)c1cn(CCCOC(=O)NCCCCCCNC(=O)OCCCn2cc(C(=O)NC(=O)OCC)c(=O)[nH]c2=O)c(=O)[nH]c1=O	inactive
COc1ccc(-n2c(=O)[nH]n(C(C)=O)c2=O)cc1	inactive
